target.entity: BTK enzyme (Homo sapiens, UniProt Q06187)
Sequence (Q06187 whole entry): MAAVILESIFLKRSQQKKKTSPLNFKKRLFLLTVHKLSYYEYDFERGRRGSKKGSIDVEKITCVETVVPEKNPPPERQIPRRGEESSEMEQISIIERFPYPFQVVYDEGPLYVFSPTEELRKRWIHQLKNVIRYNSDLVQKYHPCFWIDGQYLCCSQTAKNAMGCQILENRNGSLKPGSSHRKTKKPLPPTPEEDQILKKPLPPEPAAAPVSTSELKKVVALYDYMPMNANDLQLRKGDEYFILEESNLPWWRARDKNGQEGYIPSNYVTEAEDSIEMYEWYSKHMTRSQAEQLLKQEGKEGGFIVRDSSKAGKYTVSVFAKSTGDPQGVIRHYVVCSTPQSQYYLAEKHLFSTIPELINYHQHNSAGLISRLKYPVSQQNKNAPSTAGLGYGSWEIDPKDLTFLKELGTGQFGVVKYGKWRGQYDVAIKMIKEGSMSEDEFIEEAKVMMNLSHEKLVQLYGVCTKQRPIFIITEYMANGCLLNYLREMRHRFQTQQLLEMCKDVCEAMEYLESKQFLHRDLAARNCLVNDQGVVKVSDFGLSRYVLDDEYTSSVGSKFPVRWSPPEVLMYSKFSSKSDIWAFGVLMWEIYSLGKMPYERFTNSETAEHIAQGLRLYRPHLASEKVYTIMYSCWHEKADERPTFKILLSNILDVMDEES
outcome.measure: IC50

Recorded IC50, per entry:
1. COC1CN(C(=O)NCc2ccc(-c3ccnc(Nc4cnn(C)c4)n3)cc2C)C1 [Example I-300]    10 to 99 nM
2. CC(C)(C)c1ncc(C(=O)NC2CCCc3cc(-c4ccnc(N)n4)ccc32)s1 (stereo not shown) [Example I-136]    10 to 99 nM
3. COCCn1cc(Nc2nccc(-c3ccc4c(c3)CCCCC4NC(=O)N3CC(OC(C)C)C3)n2)cn1 (stereo not shown) [Example I-171]    < 10 nM

API: the following record is the query input.
**Q:** Could you tell me which IC50 is on file for Cc1cc(-c2ccnc(Nc3cnn(C)c3)n2)ccc1CNC(=O)c1ccn(C(C)(C)C)n1 [Example I-252] ?
**A:** < 10 nM

* * *

target.entity: BTK (phospho-BTK) in human whole blood (Homo sapiens, UniProt Q06187)
Sequence (Q06187 whole entry): as above
assay.method.text: In vitro PD assay in human whole blood (pBTK assay)
Assign IC50 to each entry below.

Examples with their reported IC50 follow.
1. Cc1cc(-c2ccnc(Nc3cnn(C)c3)n2)ccc1CNC(=O)N1CCC(C(F)(F)F)CC1    500 to 1500 nM
2. Cc1cc(-c2cc(Nc3cnn(C)c3)ncn2)ccc1CNC(=O)c1cnc(C(C)(C)C)s1    1500 to 10000 nM
3. Cc1cc(-c2ccnc(Nc3cn[nH]c3)n2)ccc1CNC(=O)N1CC(OC(C)C)C1    500 to 1500 nM
4. Cc1cc(-c2ccnc(Nc3cc4n(n3)CCNC4)n2)ccc1CNC(=O)c1cnc(C(C)(C)C)s1    500 to 1500 nM
5. Cc1cc(-c2cc(Nc3cc4n(n3)CCCN(CCO)C4)ncn2)ccc1CNC(=O)c1cnn(C(C)(C)C)c1    < 500 nM
6. Cc1cc(-c2cc(Nc3cc4n(n3)CCS(=O)(=O)C4)ncn2)ccc1CNC(=O)c1cnn(C(C)(C)C)c1    < 500 nM
7. CCn1cc(Nc2nccc(-c3ccc(CNC(=O)c4cnn(C(C)(C)C)c4)c(C)c3)n2)cn1    < 500 nM
8. CC(C)n1cc(Nc2nccc(-c3ccc(CNC(=O)N4CC(OC(C)(C)C)C4)c(C(F)(F)F)c3)n2)cn1    < 500 nM

Provide IC50 for all items below, preserving their order.
1. Cc1cc(-c2cc(Nc3cc4n(n3)CCN(C)C4=O)ncn2)ccc1CNC(=O)c1cnc(C(C)(C)C)s1
2. Cc1cc(-c2ccnc(Nc3cnn(C4CCN(C)CC4)c3)n2)ccc1CNC(=O)c1cc(C(C)(C)C)on1
3. CN1CC[C@@H](n2cc(Nc3nccc(-c4ccc(CNC(=O)N5CCC(C(C)(C)C)C5)c(C(F)(F)F)c4)n3)cn2)C1 (stereo partly shown)
4. Cn1cc(Nc2nccc(-c3ccc4c(c3)CCCC[C@H]4NC(=O)N3CC(OC(C)(C)C)C3)n2)cn1
5. Cc1cc(-c2ccnc(Nc3cnn(C4CCN(C)CC4)c3)n2)ccc1CNC(=O)c1cnc(C(C)(C)C)s1

**A:**
1: < 500 nM; 2: < 500 nM; 3: < 500 nM; 4: < 500 nM; 5: < 500 nM
